System: Staphylococcus aureus
Test: Antibacterial activity against […] Staphylococcus aureus ATCC 29213 by the broth microdilution method
Format: functional

Molecule	MIC (µg/mL)
CC[C@H]1OC(=O)[C@H](C)[C@@H](O[C@H]2C[C@@](C)(OC)[C@@H](OC(=O)NCCNC(=O)c3ccc(OC)cc3)[C@H](C)O2)[C@H](C)[C@@H](O[C@@H]2O[C@H](C)C[C@H](N(C)C)[C@H]2O)[C@](C)(O)C[C@@H](C)CN(C)[C@H](C)[C@H]2OC(=O)O[C@@]21C	16
CC[C@H]1OC(=O)[C@H](C)[C@@H](O[C@H]2C[C@@](C)(OC)[C@@H](O)[C@H](C)O2)[C@H](C)[C@@H](O[C@@H]2O[C@H](C)C[C@H](N(C)C)[C@H]2O)[C@](C)(O)C[C@@H](C)CN(C)[C@H](C)[C@@H](O)[C@]1(C)O [AZITHROMYCIN]	1
CC[C@H]1OC(=O)[C@H](C)[C@@H](O[C@H]2C[C@@](C)(OC)[C@@H](OC(=O)NCCNC(=O)c3ccc(OC)c(OC)c3)[C@H](C)O2)[C@H](C)[C@@H](O[C@@H]2O[C@H](C)C[C@H](N(C)C)[C@H]2O)[C@](C)(O)C[C@@H](C)CN(C)[C@H](C)[C@H]2OC(=O)O[C@@]21C	32
CC[C@H]1OC(=O)[C@H](C)[C@@H](O[C@H]2C[C@@](C)(OC)[C@@H](OC(=O)NNC(=O)c3ccc([N+](=O)[O-])cc3)[C@H](C)O2)[C@H](C)[C@@H](O[C@@H]2O[C@H](C)C[C@H](N(C)C)[C@H]2O)[C@](C)(O)C[C@@H](C)CN(C)[C@H](C)[C@H]2OC(=O)O[C@@]21C	4
